# target-or-test-system: FGFR3 (UniProt P22607)
# Sequence (P22607 whole entry, looked up): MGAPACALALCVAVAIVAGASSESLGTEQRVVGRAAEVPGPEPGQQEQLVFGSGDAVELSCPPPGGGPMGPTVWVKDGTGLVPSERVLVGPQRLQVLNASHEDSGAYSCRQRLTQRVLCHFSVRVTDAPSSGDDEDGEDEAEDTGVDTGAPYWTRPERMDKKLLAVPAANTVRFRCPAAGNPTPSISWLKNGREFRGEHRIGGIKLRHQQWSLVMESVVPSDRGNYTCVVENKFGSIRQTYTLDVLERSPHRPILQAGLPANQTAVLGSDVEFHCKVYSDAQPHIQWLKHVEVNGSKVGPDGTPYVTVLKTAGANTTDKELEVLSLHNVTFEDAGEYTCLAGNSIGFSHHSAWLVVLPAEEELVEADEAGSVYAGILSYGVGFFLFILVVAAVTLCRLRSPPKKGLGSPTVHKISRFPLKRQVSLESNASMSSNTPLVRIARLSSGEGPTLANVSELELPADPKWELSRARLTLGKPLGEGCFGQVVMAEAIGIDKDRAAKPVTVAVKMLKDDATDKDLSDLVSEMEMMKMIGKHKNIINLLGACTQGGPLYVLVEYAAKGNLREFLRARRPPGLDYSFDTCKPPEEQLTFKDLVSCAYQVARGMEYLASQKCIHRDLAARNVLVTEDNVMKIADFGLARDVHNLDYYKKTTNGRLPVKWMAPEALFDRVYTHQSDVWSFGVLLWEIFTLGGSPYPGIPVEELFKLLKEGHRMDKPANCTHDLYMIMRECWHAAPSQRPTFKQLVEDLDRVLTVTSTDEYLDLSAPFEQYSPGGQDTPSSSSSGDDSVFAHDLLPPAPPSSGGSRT
# procedure-details: phosphorylation enrichment, bacterial display (enrichment ratio); higher = better substrate or ligand; peptides without Tyr show the background;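 note: 11-residue human phosphosite peptides and single-mutation variants displayed on the E. coli surface, counted by deep sequencing, each peptide's frequency after selection divided by its frequency in the unselected input library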;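 note: frequency after pTyr selection over input frequency; kinase dosed for 20-30% of maximal phosphorylation in three min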
# phosphorylation enrichment >= 0.9 gives met, anything below gives not met

input: Evaluate HFMELYDLNRD [BBS2_Y648_R643H_YF] : phosphorylation enrichment at minimum 0.9?
output: not met

input: Try this sequence too: TNYRFYLRSLE [MTM1_Y71_L70F]
output: not met

input: Try this sequence too: LTGIAYGLPHW [SLC22A14_Y291_S292G]
output: not met

input: Try this sequence too: LGQRIYQYIQS [DYRK1B_Y271]
output: met

input: Try this sequence too: PLQHVYKIGGI [EEF1A2_Y254_D252H]
output: not met

input: Try this sequence too: NREGVYTDFAP [TGFBI_Y537_V539D]
output: not met

input: Try this sequence too: TKEPKYGGAGS [KIAA1210_Y1615_E1616G]
output: not met

input: Try this sequence too: ETKKQYDSFTY [TMED3_Y85]
output: not met

input: Try this sequence too: DLVSEYQQYQD [TUBB3_Y422]
output: not met

input: Try this sequence too: KSRQIYDAYIM [GRK3_Y109_R104K]
output: not met

input: Try this sequence too: KASRKYYAMKI [AKT3_Y173_G171R]
output: not met

input: Try this sequence too: DSGKLYALDGL [INO80_Y1104_V1108G]
output: not met

input: Try this sequence too: GVPLGYPIKAS [ELN_Y206_P211S]
output: not met

input: Try this sequence too: SSEYHYVGGFY [CTSC_Y347]
output: met

input: Try this sequence too: SQPASYQRRFL [PPIG_Y320_L324F]
output: not met

input: Try this sequence too: FMGVEYSSCDT [EPHA3_Y937_T933M]
output: not met

input: Try this sequence too: SRWKLYPRMLR [HAO1_Y50]
output: not met

input: Try this sequence too: LTDTVYSSSSA [OR4C12_Y71_I67T]
output: not met

input: Try this sequence too: EPVSDYINANI [PTPN11_Y304]
output: not met

input: Try this sequence too: PVRIAYGRPRG [SUGP2_Y985_D986G]
output: not met

input: Try this sequence too: KPAFSYTSSST [SIM1_Y356]
output: not met

input: Try this sequence too: LLFRVYGLESL [INSR_Y94]
output: met

input: Try this sequence too: ALCHYYKLNII [ETV6_Y402_R399C]
output: met

input: Try this sequence too: WCSNDYLGMSQ [ALAS2_Y199_R204Q]
output: met
